Test: in vivo
Design: species or system mice
Settings: male, SCID, mouse, iv, 40 pmol, total radioactivity, Tumor/Pancreas ratio
Residues, ends and D or L forms follow the SMILES beside them. *: point of attachment. DOTA = O=C(O)CN1CCN(CC(=O)O)CCN(CC(=O)*)CCN(CC(=O)O)CC1; X1 = Cc1ccc(CCCC(=O)NCCOCCOCCOCCOCC(=O)*)cc1; βAla = NCCC(=O)O
reportedProperty: tissue to tissue ratio at 72 h

compound="CC[C@H](C)[C@H](NC(=O)[C@H](Cc1ccc(O)cc1)NC(=O)[C@@H]1CCCN1C(=O)[C@H](CCCNC(=N)N)NC(=O)[C@H](CCCNC(=N)N)NC(=O)[C@H](CCCCNC(=O)COCCOCCOCCOCCNC(=O)CCCc1ccc(C)cc1)NC(=O)CCNC(=O)CCNC(=O)CCNC(=O)CN1CCN(CC(=O)O)CCN(CC(=O)O)CCN(CC(=O)O)CC1)C(=O)N[C@@H](CC(C)C)C(=O)O [[^177Lu]Lu-DT14D, metal not drawn] ({DOTA-βAla-βAla-βAla}-K(X1)RRPYIL-OH)" reportedproperty="tissue to tissue ratio at 72 h" measured=16.2

====

Experiment: in vivo
Design: species or system mice
Conditions: male, SCID, mouse, iv, 730 kBq, total radioactivity, Biodistribution, Pancreas
Residues, ends and D or L forms follow the SMILES beside them. *: point of attachment. DOTA = O=C(O)CN1CCN(CC(=O)O)CCN(CC(=O)*)CCN(CC(=O)O)CC1; X1 = Cc1ccc(CCCC(=O)NCCOCCOCCOCCOCC(=O)*)cc1; βAla = NCCC(=O)O
reportedProperty: tissue uptake at 48 h

molecule="CC[C@H](C)[C@H](NC(=O)[C@H](Cc1ccc(O)cc1)NC(=O)[C@@H]1CCCN1C(=O)[C@H](CCCNC(=N)N)NC(=O)[C@H](CCCNC(=N)N)NC(=O)[C@H](CCCCNC(=O)COCCOCCOCCOCCNC(=O)CCCc1ccc(C)cc1)NC(=O)CCNC(=O)CCNC(=O)CCNC(=O)CN1CCN(CC(=O)O)CCN(CC(=O)O)CCN(CC(=O)O)CC1)C(=O)N[C@@H](CC(C)C)C(=O)O [[^177Lu]Lu-DT14D, metal not drawn] ({DOTA-βAla-βAla-βAla}-K(X1)RRPYIL-OH)" measured="0.07 %ID/g"

====

Experiment: in vivo
Design: species or system mice
Settings: male, SCID, mouse, iv, total radioactivity, Biodistribution, Kidneys
Residues, ends and D or L forms follow the SMILES beside them. *: point of attachment. DOTA = O=C(O)CN1CCN(CC(=O)O)CCN(CC(=O)*)CCN(CC(=O)O)CC1; X1 = Cc1ccc(CCCC(=O)NCCOCCOCCOCCOCC(=O)*)cc1; βAla = NCCC(=O)O
reportedProperty: tissue uptake at 24 h (%ID/g)

compound="CC[C@H](C)[C@H](NC(=O)[C@H](Cc1ccc(O)cc1)NC(=O)[C@@H]1CCCN1C(=O)[C@H](CCCNC(=N)N)NC(=O)[C@H](CCCNC(=N)N)NC(=O)[C@H](CCCCNC(=O)COCCOCCOCCOCCNC(=O)CCCc1ccc(C)cc1)NC(=O)CCNC(=O)CCNC(=O)CCNC(=O)CN1CCN(CC(=O)O)CCN(CC(=O)O)CCN(CC(=O)O)CC1)C(=O)N[C@@H](CC(C)C)C(=O)O [[^111In]In-DT14D, metal not drawn] ({DOTA-βAla-βAla-βAla}-K(X1)RRPYIL-OH)" measured=1.7

====

Test: in vivo
Set-up: species or system mice
Settings: male, SCID, mouse, iv, total radioactivity, Biodistribution, AsPC-1 Tumor
Residues, ends and D or L forms follow the SMILES beside them. *: point of attachment. DOTA = O=C(O)CN1CCN(CC(=O)O)CCN(CC(=O)*)CCN(CC(=O)O)CC1; X1 = Cc1ccc(CCCC(=O)NCCOCCOCCOCCOCC(=O)*)cc1; βAla = NCCC(=O)O
reportedProperty: tissue uptake at 1 h (%ID/g)

compound="CC[C@H](C)[C@H](NC(=O)[C@H](Cc1ccc(O)cc1)NC(=O)[C@@H]1CCCN1C(=O)[C@H](CCCNC(=N)N)NC(=O)[C@H](CCCNC(=N)N)NC(=O)[C@H](CCCCNC(=O)COCCOCCOCCOCCNC(=O)CCCc1ccc(C)cc1)NC(=O)CCNC(=O)CCNC(=O)CCNC(=O)CN1CCN(CC(=O)O)CCN(CC(=O)O)CCN(CC(=O)O)CC1)C(=O)N[C@@H](CC(C)C)C(=O)O [[^67Ga]Ga-DT14D, metal not drawn] ({DOTA-βAla-βAla-βAla}-K(X1)RRPYIL-OH)" reportedproperty="tissue uptake at 1 h" measured=11.4

====

Assay: in vivo
Design: species or system mice
Conditions: male, SCID, mouse, iv, total radioactivity, Tumor/Stomach ratio
Text: The distribution of [^67Ga]Ga/[^111In]In/[^177Lu]Lu-DT14D was investigated in male severe combined immunodeficiency (SCID) mice (49 mice in total, 6 weeks of age on arrival date, 22 ± 4 g, NCSR “Demokritos” Animal House, Athens, Greece) bearing NTS1R-positive AsPC-1 xenografts in their flanks. […] The animals were euthanized at predetermined time intervals, dissected and blood samples, organs of interest, and tumors were collected, weighed, and counted in the gamma counter. […]
Residues, ends and D or L forms follow the SMILES beside them. *: point of attachment. DOTA = O=C(O)CN1CCN(CC(=O)O)CCN(CC(=O)*)CCN(CC(=O)O)CC1; X1 = Cc1ccc(CCCC(=O)NCCOCCOCCOCCOCC(=O)*)cc1; βAla = NCCC(=O)O
reportedProperty: tissue to tissue ratio at 1 h

molecule="CC[C@H](C)[C@H](NC(=O)[C@H](Cc1ccc(O)cc1)NC(=O)[C@@H]1CCCN1C(=O)[C@H](CCCNC(=N)N)NC(=O)[C@H](CCCNC(=N)N)NC(=O)[C@H](CCCCNC(=O)COCCOCCOCCOCCNC(=O)CCCc1ccc(C)cc1)NC(=O)CCNC(=O)CCNC(=O)CCNC(=O)CN1CCN(CC(=O)O)CCN(CC(=O)O)CCN(CC(=O)O)CC1)C(=O)N[C@@H](CC(C)C)C(=O)O [[^67Ga]Ga-DT14D, metal not drawn] ({DOTA-βAla-βAla-βAla}-K(X1)RRPYIL-OH)" reportedproperty="tissue to tissue ratio at 1 h" measured=12.2

====

Experiment: in vivo
Design: species or system mice
Details: male, SCID, mouse, iv, 730 kBq, total radioactivity, Tumor/Spleen ratio
Residues, ends and D or L forms follow the SMILES beside them. *: point of attachment. DOTA = O=C(O)CN1CCN(CC(=O)O)CCN(CC(=O)*)CCN(CC(=O)O)CC1; X1 = Cc1ccc(CCCC(=O)NCCOCCOCCOCCOCC(=O)*)cc1; βAla = NCCC(=O)O
reportedProperty: tissue to tissue ratio at 48 h

molecule="CC[C@H](C)[C@H](NC(=O)[C@H](Cc1ccc(O)cc1)NC(=O)[C@@H]1CCCN1C(=O)[C@H](CCCNC(=N)N)NC(=O)[C@H](CCCNC(=N)N)NC(=O)[C@H](CCCCNC(=O)COCCOCCOCCOCCNC(=O)CCCc1ccc(C)cc1)NC(=O)CCNC(=O)CCNC(=O)CCNC(=O)CN1CCN(CC(=O)O)CCN(CC(=O)O)CCN(CC(=O)O)CC1)C(=O)N[C@@H](CC(C)C)C(=O)O [[^177Lu]Lu-DT14D, metal not drawn] ({DOTA-βAla-βAla-βAla}-K(X1)RRPYIL-OH)" reportedproperty="tissue to tissue ratio at 48 h" measured=1.1

====

Experiment: in vivo
Set-up: species or system mice
Conditions: male, SCID, mouse, iv, 730 kBq, total radioactivity, Biodistribution, AsPC-1 Tumor
Residues, ends and D or L forms follow the SMILES beside them. *: point of attachment. DOTA = O=C(O)CN1CCN(CC(=O)O)CCN(CC(=O)*)CCN(CC(=O)O)CC1; X1 = Cc1ccc(CCCC(=O)NCCOCCOCCOCCOCC(=O)*)cc1; βAla = NCCC(=O)O
reportedProperty: tissue uptake at 48 h

compound="CC[C@H](C)[C@H](NC(=O)[C@H](Cc1ccc(O)cc1)NC(=O)[C@@H]1CCCN1C(=O)[C@H](CCCNC(=N)N)NC(=O)[C@H](CCCNC(=N)N)NC(=O)[C@H](CCCCNC(=O)COCCOCCOCCOCCNC(=O)CCCc1ccc(C)cc1)NC(=O)CCNC(=O)CCNC(=O)CCNC(=O)CN1CCN(CC(=O)O)CCN(CC(=O)O)CCN(CC(=O)O)CC1)C(=O)N[C@@H](CC(C)C)C(=O)O [[^177Lu]Lu-DT14D, metal not drawn] ({DOTA-βAla-βAla-βAla}-K(X1)RRPYIL-OH)" measured="1.56 %ID/g"
